Endpoint: melting point

>>> df
                                    compound        reading
 0  O=C(O)c1cccc(NCc2ccc(Sc3ccc(Cl)c(Cl)c3)c([N+](=O)[O-])c2)c1 [C3-047]  224 to 226 °C
 1  O=C(O)c1cccc(NC(=O)c2ccc(Sc3ccc(Cl)c(Cl)c3)c([N+](=O)[O-])c2)c1 [C3-048]  280 to 282 °C
 2  O=C(O)c1cc(NCc2ccc(Sc3ccc(Cl)c(Cl)c3)c([N+](=O)[O-])c2)ccc1Cl [C3-079]  148 to 150 °C
 3  NS(=O)(=O)c1cccc(NCc2ccc(Sc3ccc(Cl)c(Cl)c3)c([N+](=O)[O-])c2)c1 [C3-074]  191 to 193 °C
 4  COc1ccccc1Sc1ccc(C(=O)c2ccccc2C(=O)O)cc1[N+](=O)[O-] [C3-2]  209 to 211 °C
 5  NC(=O)c1cccc(NCc2ccc(Sc3ccc(Cl)c(Cl)c3)c([N+](=O)[O-])c2)c1 [C3-066]  158 to 160 °C
 6  Nc1ccccc1Sc1ccc(C(=O)Nc2ccc(C(=O)O)cc2)cc1[N+](=O)[O-] [C3-056]  247 to 249 °C
 7  O=C(O)c1ccccc1C(=O)c1ccc(Nc2cccc3cccnc23)c([N+](=O)[O-])c1 [C3-26]  151 to 153 °C
 8  O=C(O)c1ccccc1C(=O)c1ccc(Sc2ccccn2)c([N+](=O)[O-])c1 [C3-4]  205 to 206 °C
 9  Cc1cccc([N+](=O)[O-])c1Sc1ccc(C(=O)c2ccccc2C(=O)O)cc1[N+](=O)[O-] [C3-15]  269 to 271 °C
10  NC(=O)c1ccccc1NCc1ccc(Sc2ccc(Cl)c(Cl)c2)c([N+](=O)[O-])c1 [C3-090]  184 to 186 °C
11  O=C(O)c1ccc(N2CCOCC2)c(NCc2ccc(Sc3ccc(Cl)c(Cl)c3)c([N+](=O)[O-])c2)c1 [C3-073]  147 to 149 °C
12  O=C(O)c1ccccc1C(=O)c1ccc(Sc2ccc(Cl)cc2Cl)c([N+](=O)[O-])c1 [C3-11]  260 to 262 °C
13  O=C(O)c1ccccc1C(=O)c1ccc(NCc2ccccc2)c([N+](=O)[O-])c1 [C3-29]    88 to 90 °C
14  Cc1occc1Sc1ccc(C(=O)c2ccccc2C(=O)O)cc1[N+](=O)[O-] [C3-16]  198 to 199 °C
15  NC(=O)c1cccc(Nc2ccc(C(=O)c3ccccc3C(=O)O)cc2[N+](=O)[O-])c1 [C3-22]  139 to 141 °C
16  CC(C)Nc1cccc(Sc2ccc(C(=O)c3ccccc3C(=O)O)cc2[N+](=O)[O-])c1 [C3-7]  130 to 132 °C
17  Nc1cc(C(=O)c2ccccc2C(=O)O)ccc1Sc1ccc(Cl)c(Cl)c1 [C3-094]  188 to 190 °C
18  Nc1ccccc1Sc1ccc(C(=O)Nc2ccccc2C(=O)O)cc1[N+](=O)[O-] [C3-057]  259 to 261 °C
19  Cc1ccc(Sc2ccc(C(=O)c3ccccc3C(=O)O)cc2[N+](=O)[O-])c(C)c1 [C3-12]  240 to 242 °C
20  O=C(O)c1ccccc1C(=O)c1ccc(Nc2ccccc2)c([N+](=O)[O-])c1 [C3-25]  184 to 186 °C
21  N#Cc1ccccc1NCc1ccc(Sc2ccc(Cl)c(Cl)c2)c([N+](=O)[O-])c1 [C3-091]  173 to 175 °C
22  O=C(Nc1ccccc1C(=O)O)c1ccc(Sc2ccc(Cl)c(Cl)c2)c([N+](=O)[O-])c1 [C3-077]  279 to 281 °C
23  O=C(Nc1cccc(Sc2ccc(C(=O)c3ccccc3C(=O)O)cc2[N+](=O)[O-])c1)c1ccccc1 [C3-9]  144 to 145 °C
24  CC(C)(C)c1cccc(Nc2ccc(C(=O)c3ccccc3C(=O)O)cc2[N+](=O)[O-])c1 [C3-21]  110 to 112 °C
25  O=C(O)c1ccccc1C(=O)c1ccc(Nc2cccc(CO)c2)c([N+](=O)[O-])c1 [C3-19]  132 to 134 °C
26  O=C(O)c1ccccc1C(=O)c1ccc(Nc2ccc(Cl)c(Cl)c2)c([N+](=O)[O-])c1 [C3-23]  115 to 117 °C
27  O=C(O)c1ccc(F)c(NCc2ccc(Sc3ccc(Cl)c(Cl)c3)c([N+](=O)[O-])c2)c1 [C3-082]  237 to 239 °C
28  CC(=O)Nc1cccc(Sc2ccc(C(=O)c3ccccc3C(=O)O)cc2[N+](=O)[O-])c1 [C3-8]  144 to 146 °C
29  O=C(O)c1ccccc1C(=O)c1ccc(Sc2ccccc2F)c([N+](=O)[O-])c1 [C3-3]  175 to 176 °C
30  O=[N+]([O-])c1cc(CNc2cccc(CO)c2)ccc1Sc1ccc(Cl)c(Cl)c1 [C3-080]  118 to 120 °C

Taken from patent US20220388953A1.
